Tested on: MS2 coat protein
PROTOCOL: apparent KD of MS2 coat protein; designed switch direction (-1 OFF switch, 1 ON switch): -1; higher = weaker reporter binding
SETUP_CONDITIONS: input ligand: none
Listed below: apparent KD of MS2 coat protein values for each entry.
ATTRIBUTE_MEASURED: apparent KD of MS2 coat protein (µM)

{"columns": ["ORDERED_RESIDUES", "EXPERIMENTAL_RESULT"],
 "data": [
  ["CCGGGUCACGUAAGGAUAUCACGCGCAGACGCUAGUGAGAAGGUACAUGAGGAUCACCCAUGUUCCAUUCGCAG [BmEX4 C.5] (Eterna round: R97, puzzle: Brourd's mod of Exclusion 4)", 0.0138],
  ["AAAAAAAAGAUAGGAUAUUAGAAAAAAAUGGUGAUAGAGACAUGAGGAUCACCCAUGUAAAAAAAUAAGAAGGGUCAAAAAAAA [AK ExNG2-V2-5] (Eterna round: R96, puzzle: Exclusion NG 2)", 0.362],
  ["GUCAGCUCGUGAGGAUAUGAACAUGAGGAUCACCCAUGUAAGAUCAAGCUGCUUCGGCAGCAAGUUCAGAAGGUACGAGCUGAU [ENG2/10-C2] (Eterna round: R96, puzzle: Exclusion NG 2)", 0.122],
  ["AACAGUCCUUAGGAUAUGUGCGAUUAAUAUCGUGCAGAAGGAUGGACAUGAGGAUCACCCAUGUAAAUACUACC [Omei Ex6 A17] (Eterna round: R97, puzzle: Exclusion 6)", 0.0209],
  ["UCUUCAGCCAAGUUCACAUACAUGAGGAUCACCCAUGUUGCGUAACGCAUGCAUAUCCUAGUUGCUCGUUCUACAGU [Eternabot (L1) Solution 6] (Eterna round: R97, puzzle: Sensor, turn-off variant 1)", 0.0331]
]}

* * *

Test system: MS2 coat protein
PROTOCOL: apparent KD of MS2 coat protein; designed switch direction (-1 OFF switch, 1 ON switch): -1; higher = weaker reporter binding
SETUP_CONDITIONS: input ligand: FMN 200 uM

{"columns": ["ORDERED_RESIDUES", "apparent KD of MS2 coat protein / µM"],
 "data": [
  ["CCCAGAUAGGAAGGAUAUUGUACAUGAGGAUCACCCAUGUAAUAAAUGAGGAUCACGGAUGUAGACAAGAAGGUCCGGAUAGGC [Ostracism 7 - Jieux - Exclusion NG 2] (Eterna round: R96, puzzle: Exclusion NG 2)", 0.108],
  ["UAGUACAGAGGAUAUACAUGAGGAUCACCCAUGUGUUUCAGCUAGGAGACUAGCGAAAGUAGAAGGCUGUACUU [salish99_ex3_r4_009] (Eterna round: R97, puzzle: Exclusion 3)", 0.0224],
  ["UAAAGUAUAUAGGAUAUCUAGCUGGUAACAGCUAGAGAAGGAUGUACAUGAGGAUCACCCAUGUAAAUCAUGAA [Ex6/16-A2] (Eterna round: R97, puzzle: Exclusion 6)", 0.0208],
  ["CGCUGGACAGGAUAUGUUCUUGGGCACUUGAGGAUCACCCAAGUCAUCAAGAAAUCAGGCACAGAAGGGUUUAUGG [salish99_ex5_r4_021] (Eterna round: R97, puzzle: Exclusion 5)", 0.0187],
  ["GCUCAACAUGAGGAUCACCCAUGUCAGGAUAUGCGAAUUUCAUCAAAAGAUGAAAUUUGCAGAAGGGACUGAGC [Omei Ex1 A31] (Eterna round: R97, puzzle: Exclusion 1)", 0.0272],
  ["AGAGUGCUGCGAGGAUAUACAUGAGGAUCACCCAUGUUUACCUGUGAGGCAAAGCCUCACAGGUAGUAGAAGGCGCAGUACUCA [Mat - Exclusion NG 2 - Mod of JL - D43] (Eterna round: R96, puzzle: Exclusion NG 2)", 0.0146],
  ["ACAUGAGGAUCACCCAUGUUUUUUGGGUACUCUUGUUUCUGCAAGGAUAUGCAUUAUUUAUGUACGCAGAAGGUGCAUUACGUC [JR_ExcNG3_Sub062] (Eterna round: R96, puzzle: Exclusion NG 3)", 0.696],
  ["AAACGGCAUAGAGGAUAUGCUUACCUGGGUCGUCUUCAAACAUGAGGAUCACCCAUGUAGUCGACGCAGAAGGUUAUCAAAGCC [ExNG2 2nd] (Eterna round: R96, puzzle: Exclusion NG 2)", 0.016],
  ["CCAUAUAACUGAGGAUAUAAUCGCCACUGACGUUUAGAAGGCAGACAUGAGGAUCACCCAUGUGAUUUCUCAAUAUUAUACAUC [Prohibition 78 - Jieux - Exclusion NG 1] (Eterna round: R96, puzzle: Exclusion NG 1)", 1.84]
]}
